test system: HEK-293T; assay: Multiplex assay against HEK293T; format: toxicity, cell-based; conditions: human, 12 h, 1 µM, compound concentration 1 uM, replicate 1
I'd be grateful if you could share measured Population Mitotic Cells (%) for these entries.
Enter your answer as a number in %; do not include the unit.

Exam item: Which Population Mitotic Cells (%) value belongs to Nc1nc(CC(=O)Nc2ccc(CCNC[C@H](O)c3ccccc3)cc2)cs1 ?
Marked response: 77

Exam item: # lookup: Population Mitotic Cells (%) of CC(C)(C)c1ccc(CSc2cnn(C(C)(C)C)c(=O)c2Cl)cc1
Marked response: 48

Exam item: What value of Population Mitotic Cells (%) has been reported for the following compound? CN1CCN2c3ccccc3Cc3ccccc3C2C1.Cl (stereo not drawn) [MIANSERIN HYDROCHLORIDE]
Marked response: 76

Exam item: What value of Population Mitotic Cells (%) has been reported for the following compound? OCCCNc1cc(-c2ccnc(Nc3cccc(Cl)c3)n2)ccn1
Marked response: 33

Exam item: Look at this compound and give its reported Population Mitotic Cells (%). COc1ccc2[nH]c(I)c(CCNC(C)=O)c2c1
Marked response: 57

Exam item: # get_value(readout='Population Mitotic Cells (%)', item= Cl.Cl.OCCOCCN1CCN(C(c2ccccc2)c2ccc(Cl)cc2)CC1 (stereo not drawn) [HYDROXYZINE HYDROCHLORIDE] )
Marked response: 66

Exam item: State the recorded Population Mitotic Cells (%) for this entry: O=C(Nc1cc(-c2ccccc2)nn1-c1ccccc1F)c1ccc([N+](=O)[O-])cc1
Marked response: 66

Exam item: # lookup: Population Mitotic Cells (%) of S=C(NCCCc1c[nH]cn1)NCCCN(Cc1ccc(Cl)c(Cl)c1)c1ccc(Br)cn1
Marked response: 60

Exam item: Returns the measured Population Mitotic Cells (%) for the input compound. Input: COc1cc(OC2CCN(C(C)=O)CC2)ccc1C(=O)N1CCC(N2C(=O)OCc3ccccc32)CC1
Marked response: 71

Exam item: What does the record list as Population Mitotic Cells (%) for CCn1c(-c2nc3cc(C(=O)N4CCCC(N)C4)ccc3n2C)cc2ccccc21.Cl (stereo not drawn) ?
Marked response: 45

Exam item: Give the measured Population Mitotic Cells (%) of COc1cc2nc(N3CCN(C(=O)c4ccco4)CC3)nc(N)c2cc1OC.Cl [PRAZOSIN HYDROCHLORIDE] .
Marked response: 67

Exam item: Look up Population Mitotic Cells (%) for this compound: COc1ccc2c(c1OCc1ccccc1)C[C@@H](C(=O)O)N(C(=O)C(c1ccccc1)c1ccccc1)C2
Marked response: 60

Exam item: Need Population Mitotic Cells (%) of COC(c1ccccc1)(c1ccccc1)[C@H](Oc1nc(C)cc(C)n1)C(=O)O , thanks.
Marked response: 61

Exam item: // query Population Mitotic Cells (%) value for entry N[C@](CC1c2ccccc2Oc2ccccc21)(C(=O)O)[C@H]1C[C@@H]1C(=O)O
Marked response: 61

Exam item: Which Population Mitotic Cells (%) reading was recorded for the compound Cc1cc(O)c(-c2ccc([C@@H](C)CN(C)C)cc2)c2c1[nH]c(=O)c1sccc12 ?
Marked response: 36

Exam item: Look at this compound and give its reported Population Mitotic Cells (%). CCc1nn2c(C)cc(C)nc2c1Cc1ccc(-c2nnc(C3CCNCC3)o2)cc1
Marked response: 64

Exam item: Returns the measured Population Mitotic Cells (%) for the input compound. Input: Nc1nc(-c2ccco2)c2cnn(Cc3ccccc3F)c2n1
Marked response: 62

Exam item: Can you look up the measured Population Mitotic Cells (%) of O=C(NCCNCC(O)COc1ccc(O)cc1)N1CCOCC1.O=C(NCCNCC(O)COc1ccc(O)cc1)N1CCOCC1.O=C(O)/C=C/C(=O)O (stereo not drawn) [XAMOTEROL FUMARATE] for me?
Marked response: 60

* * *

system: HEK-293T; experiment: Multiplex assay against HEK293T; type: toxicity, cell-based; settings: human, 48 h, 10 µM, compound concentration 10 uM, replicate 1
Assign Population Healthy Nuclei (%) to each entry below.

Exam item: Would you kindly share the measured Population Healthy Nuclei (%) for C[C@@H]1CC(=O)Nc2cccc(-c3ccc4c(c3)c(-c3cnn(C)c3)nn4C)c2N1 ?
Marked response: 80%

Exam item: I would be grateful if you could share the reported Population Healthy Nuclei (%) for CCCCCCNC(=O)Nc1ccc(S(=O)(=O)Nc2ccc(CCNC[C@H](O)COc3ccc(O)cc3)cc2)cc1 [L-755507] .
Marked response: 75%

Exam item: # input compound: C[C@H](NC(=O)CNC(=O)c1cccc(Cl)c1)c1ccccc1 ; wanted: its Population Healthy Nuclei (%)
Marked response: 77%

Exam item: Recorded Population Healthy Nuclei (%) of Cc1cc(NC(=O)NCCN2CCC(O)(Cc3ccccc3)CC2)c2ccccc2n1 [PALOSURAN] , please.
Marked response: 75%

Exam item: State the recorded Population Healthy Nuclei (%) for this entry: CCCCC[C@H](O)/C=C/[C@H]1[C@H](O)CC(=O)[C@@H]1CCCCCCC(=O)O [ALPROSTADIL]
Marked response: 76%

Exam item: What measured Population Healthy Nuclei (%) goes with COc1ccc2c(c1OCc1ccccc1)C[C@@H](C(=O)O)N(C(=O)C(c1ccccc1)c1ccccc1)C2 [OLODANRIGAN] ?
Marked response: 78%

Exam item: Query: Population Healthy Nuclei (%); subject: C=CCN1C[C@H](C(=O)N(CCCN(C)C)C(=O)NCC)C[C@@H]2c3cccc4[nH]cc(c34)C[C@H]21 [CABERGOLINE]
Marked response: 76%

Exam item: If you can, please state the reported Population Healthy Nuclei (%) value of CC(F)(F)CN1CCOc2c(nn(-c3ccccc3Cl)c2-c2ccc(Cl)cc2)C1=O .
Marked response: 74%

Exam item: I would be grateful if you could share the reported Population Healthy Nuclei (%) for Cc1sc2c(c1C)C(c1ccc(Cl)cc1)=N[C@H](CC(=O)OC(C)(C)C)c1nnc(C)n1-2 .
Marked response: 73%

Exam item: Request the reported Population Healthy Nuclei (%) associated with CN(C)C/C=C/C(=O)Nc1ccc(C(=O)N2CCCC(Nc3ncc(Cl)c(-c4c[nH]c5ccccc45)n3)C2)cc1 (stereo not drawn)
Marked response: 14%

Exam item: So what's the measured Population Healthy Nuclei (%) for this one? COc1cc(C(=O)N2CC[C@@H](O)[C@@H](N)C2)cc2nc(-c3cc4ccccc4n3CC3CC3)n(C)c12.Cl
Marked response: 68%

Exam item: Population Healthy Nuclei (%) lookup needed for Nc1nc(-c2ccco2)c2cnn(Cc3ccccc3F)c2n1 , thanks.
Marked response: 73%

Exam item: I have this compound here, Cn1cc(C(=O)OCC2CCN(CCNS(C)(=O)=O)CC2)c2ccccc21 , and I need its recorded Population Healthy Nuclei (%).
Marked response: 77%

Exam item: Item O=C(NCCNCC(O)COc1ccc(O)cc1)N1CCOCC1.O=C(NCCNCC(O)COc1ccc(O)cc1)N1CCOCC1.O=C(O)/C=C/C(=O)O (stereo not drawn) [XAMOTEROL FUMARATE] has what recorded Population Healthy Nuclei (%)?
Marked response: 79%

Exam item: Which Population Healthy Nuclei (%) is reported for this compound? COCCn1c(C)c(C)s/c1=N\C(=O)C1C(C)(C)C1(C)C
Marked response: 73%

Exam item: Bench note: what Population Healthy Nuclei (%) did Cc1ccc(OCC(O)C(C)NC(C)C)c2c1CCC2.Cl (stereo not drawn) show?
Marked response: 74%

Exam item: Bench note: what Population Healthy Nuclei (%) did COCCCN1CCC(NC(=O)c2cc(Cl)c(N)c3c2OCC3)CC1 [PRUCALOPRIDE] show?
Marked response: 77%

Exam item: Return reported Population Healthy Nuclei (%); argument: O=C(Nc1cc(-c2ccccc2)nn1-c1ccccc1F)c1ccc([N+](=O)[O-])cc1
Marked response: 77%

* * *

system: U2OS; experiment: Multiplex assay against U2OS; format: toxicity, cell-based; conditions: human, 48 h, 1 µM, compound concentration 1 uM, replicate 2
Exercise: for every item that follows, state its recorded Population Tubulin-Different-Phenotype (%).
Write the value in % as a bare number.

Exam item: Report Population Tubulin-Different-Phenotype (%) for CN(C)C/C=C/C(=O)Nc1ccc(C(=O)N2CCCC(Nc3ncc(Cl)c(-c4c[nH]c5ccccc45)n3)C2)cc1 (configuration not stated) please.
Marked response: 3

Exam item: // returns reported Population Tubulin-Different-Phenotype (%) for input Cc1sc2c(c1C)C(c1ccc(Cl)cc1)=N[C@H](CC(=O)OC(C)(C)C)c1nnc(C)n1-2
Marked response: 5

Exam item: What Population Tubulin-Different-Phenotype (%) value was documented for this molecule, CN1C[C@H](C(=O)N[C@]2(C)O[C@@]3(O)[C@@H]4CCCN4C(=O)[C@H](Cc4ccccc4)N3C2=O)C[C@@H]2c3cccc4[nH]cc(c34)C[C@H]21.CS(=O)(=O)O [DIHYDROERGOTAMINE MESYLATE] ?
Marked response: 4

Exam item: Which measured Population Tubulin-Different-Phenotype (%) value corresponds to CCn1c(-c2nc3cc(C(=O)N4CCCC(N)C4)ccc3n2C)cc2ccccc21.Cl (configuration not stated) ?
Marked response: 8

Exam item: Given COc1cc2nc(N3CCN(C(=O)c4ccco4)CC3)nc(N)c2cc1OC.Cl [PRAZOSIN HYDROCHLORIDE] , state its recorded Population Tubulin-Different-Phenotype (%).
Marked response: 5

Exam item: Consider the molecule shown here: COCCCN1CCC(NC(=O)c2cc(Cl)c(N)c3c2OCC3)CC1 [PRUCALOPRIDE] What is its recorded Population Tubulin-Different-Phenotype (%)?
Marked response: 9

Exam item: For the molecule CCCCCCNC(=O)Nc1ccc(S(=O)(=O)Nc2ccc(CCNC[C@H](O)COc3ccc(O)cc3)cc2)cc1 [L-755507] , what Population Tubulin-Different-Phenotype (%) is on record?
Marked response: 6
